Consider the following compounds and their measured Cmax readings.
experiment: Oral PK profiles of conjugated oxymorphone in rats (released oxymorphone in plasma by LC-MS/MS); assay type: in vivo, Sprague-Dawley rats; conditions: conjugate equivalent to 2 mg/kg freebase oxymorphone, released oxymorphone in plasma
endpoint-name: Cmax (ng/mL)

compound: CN1CC[C@]23c4c5ccc(OC(=O)/C=C/c6ccccc6)c4O[C@H]2C(=O)CC[C@@]3(O)[C@H]1C5 [3-Cinnamate-OM]
endpoint-name: Cmax
display-unit: ng/mL
measured-value: 19.0
--
compound: CN1CC[C@]23c4c5ccc(OC(=O)c6ccccc6O)c4O[C@H]2C(=O)CC[C@@]3(O)[C@H]1C5
endpoint-name: Cmax
display-unit: ng/mL
measured-value: 17.5
--
compound: CC(=O)Oc1ccccc1C(=O)Oc1ccc2c3c1OC1C(=O)CCC4(O)C(C2)N(C)CCC314 (stereo not drawn)
endpoint-name: Cmax
display-unit: ng/mL
measured-value: 15.8
--
compound: CC(C(=O)Oc1ccc2c3c1O[C@H]1C(=O)CC[C@@]4(O)[C@@H](C2)N(C)CC[C@]314)c1cccc(Oc2ccccc2)c1 (stereo partly drawn)
endpoint-name: Cmax
display-unit: ng/mL
measured-value: 9.6
--
compound: CC(C(=O)Oc1ccc2c3c1O[C@H]1C(=O)CC[C@@]4(O)[C@@H](C2)N(C)CC[C@]314)c1cccc(C(=O)c2ccccc2)c1 (stereo partly drawn)
endpoint-name: Cmax
display-unit: ng/mL
measured-value: 30.3
--
compound: COc1ccc(C(=O)OC2=CC[C@@]3(O)[C@H]4Cc5ccc(O)c6c5[C@@]3(CCN4C)[C@H]2O6)cc1
endpoint-name: Cmax
display-unit: ng/mL
measured-value: 8.6

Reference source: patent US10463660B2
